B1: Gamma-crystallin S, residues 96 to 176; numbered along this chain, P22914 (parent)
chain: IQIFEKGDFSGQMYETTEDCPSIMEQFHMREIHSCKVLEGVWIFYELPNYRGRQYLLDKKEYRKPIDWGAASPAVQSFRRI

# Variants of: B1
# measurementNotes: abundance fitness (aPCA) (normalised: wild type 0, dead -1); higher = more abundant; growth selection in yeast, the domain comes from the species named
# recordedConditions: Homo sapiens
Class (required): determined from abundance fitness; valid ranges are L: < -0.1; M: ≥ -0.1 and < 0; H: ≥ 0

>>> print(df.to_string())
                          biopolymersequence  cat
 0  IQIFEKGDFSGQMYETTEDCPSIMEQFHMREIHSCKVLEGVWIFYELPNYRGRQYLLDKKEYRKPIDWGAASPAVQSFIRI [R79I]    L
 1  NQIFEKGDFSGQMYETTEDCPSIMEQFHMREIHSCKVLEGVWIFYELPNYRGRQYLLDKKEYRKPIDWGAASPAVQSFRRI [I1N]    L
 2  IQIFEKGDFSGQMYETTEDCPWIMEQFHMREIHSCKVLEGVWIFYELPNYRGRQYLLDKKEYRKPIDWGAASPAVQSFRRI [S22W]    H
 3  IQIFEKGDFSGQMYETTEDCPSEMEQFHMREIHSCKVLEGVWIFYELPNYRGRQYLLDKKEYRKPIDWGAASPAVQSFRRI [I23E]    L
 4  IQIFEKGDFSGQMYETTEDCPSIMEQFHMREIHSCKVLEGVWIFYELPNYRGRQYLLDKKEYRKPISWGAASPAVQSFRRI [D67S]    H
 5  IQIFEKGDFSGQMYHTTEDCPSIMEQFHMREIHSCKVLEGVWIFYELPNYRGRQYLLDKKEYRKPIDWGAASPAVQSFRRI [E15H]    M
 6  IQIFEKRDFSGQMYETTEDCPSIMEQFHMREIHSCKVLEGVWIFYELPNYRGRQYLLDKKEYRKPIDWGAASPAVQSFRRI [G7R]    H
 7  IQIFEKGPFSGQMYETTEDCPSIMEQFHMREIHSCKVLEGVWIFYELPNYRGRQYLLDKKEYRKPIDWGAASPAVQSFRRI [D8P]    M
 8  IQIFEKGDFSGQMYETTEDCPSIMEQFHMREIHSCKVLEGVWIFYLLPNYRGRQYLLDKKEYRKPIDWGAASPAVQSFRRI [E46L]    L
 9  IQIFEKGDFSGQMYETTEDCPSIMEQFHMREIHSCKVWEGVWIFYELPNYRGRQYLLDKKEYRKPIDWGAASPAVQSFRRI [L38W]    M
10  IQIFEKGDFSGQMYETTEDCPSIMEQFHMTEIHSCKVLEGVWIFYELPNYRGRQYLLDKKEYRKPIDWGAASPAVQSFRRI [R30T]    H
11  IQIFEKGDFSGQMYETTNDCPSIMEQFHMREIHSCKVLEGVWIFYELPNYRGRQYLLDKKEYRKPIDWGAASPAVQSFRRI [E18N]    H
12  IQIFEKGDFSGQMYETTEDCPSIQEQFHMREIHSCKVLEGVWIFYELPNYRGRQYLLDKKEYRKPIDWGAASPAVQSFRRI [M24Q]    M
13  IQIFEKGDFSGQMYETTEDCPSIMEQFHMREIHSCKVLEGVWIFYELPNYRGRCYLLDKKEYRKPIDWGAASPAVQSFRRI [Q54C]    M
